B1: KRT13 (parent)
chain: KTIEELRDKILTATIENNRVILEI

# Variants of: B1
# procedure.details: protein stability index of a GFP-peptide fusion (GPS, HEK-293T) (PSI 1-6); higher = more stable;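 also: lentivirally expressed fusions sorted by FACS into six bins by GFP to DsRed ratio, PSI derived from sequencing read proportions per bin multiplied by bin number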
# experimental.conditions: c terminus: a fixed tail appended
Class yes (1): protein stability index at least 3. Class no (0): protein stability index below 3.

Challenge: Is reported protein stability index greater than or equal to 3 here: I24R
Response given: no (0)

Challenge: Is reported protein stability index greater than or equal to 3 here: L22E
Response given: yes (1)

Challenge: Is reported protein stability index greater than or equal to 3 here: T12A
Response given: no (0)

Challenge: Is reported protein stability index greater than or equal to 3 here: N17E
Response given: no (0)

Challenge: Is reported protein stability index greater than or equal to 3 here: E23A
Response given: no (0)

Challenge: Is reported protein stability index greater than or equal to 3 here: L11Y
Response given: yes (1)

Challenge: Is reported protein stability index greater than or equal to 3 here: L11Q
Response given: no (0)

Challenge: Is reported protein stability index greater than or equal to 3 here: E4H
Response given: yes (1)

Challenge: Is reported protein stability index greater than or equal to 3 here: E5Q
Response given: no (0)

Challenge: Is reported protein stability index greater than or equal to 3 here: I10W
Response given: yes (1)

Challenge: Is reported protein stability index greater than or equal to 3 here: D8L
Response given: no (0)

# credit: the supplement of paper PMC10567573
